Data provenance: patent US20240301067A1

- TARGET OF ASSAY: T1, Human PD-1 extracellular domain, hFc tag (human, UniProt Q15116 25-170)
- T1 construct: extracellular domain; also called hPro1.ECD.hFc; not shown: human Fc tag at C-terminus
- T1 sequence (Q15116 25-170): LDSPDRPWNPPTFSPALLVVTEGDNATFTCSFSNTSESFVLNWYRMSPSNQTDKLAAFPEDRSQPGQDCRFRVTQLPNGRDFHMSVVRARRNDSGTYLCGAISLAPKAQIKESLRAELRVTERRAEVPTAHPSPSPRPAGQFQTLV
- ASSAY DETAILS: SPR Biacore 8K; PD-1-hFc captured on anti-human Fc chip, VHH injected; 1:1 fit
Consider the following binders; for each one, report its koff.
Output spec: scalar in s⁻¹, unitless text.

Data request: May I ask what koff has been recorded for AP17R1-2H2-Z1-R1-29B2 (VHH, not shown: his- and c-Myc-tag from vector pETbac) VHH: QVQLVESGGGVVQPGGSLRLSCAASDSIDSLVNMGWYRQAPGKQRELVALIANYITHYADFVKGRFTISRDNSKNTLYLQMNSLRAEDTAVYYCYARNIRVDYWGQGTLVTVSS ?
Data returned: 0.00347

Data request: May I ask what koff has been recorded for AP17R1-2H2-Z1-R1-30D3 (VHH, not shown: his- and c-Myc-tag from vector pETbac) VHH: QVQLVESGGGVVQPGGSLRLSCAASDSIDSLVNMGWYRQAPGKQRELVALIANYITHYADFVKGRFTISRDNSKNTLYLQMNSLRAEDTAVYYCYARNIIEDYWGQGTLVTVSS ?
Data returned: 0.00282
